Assay Protocol: Tigecycline plasma PK and % F after PO enteric-coated capsule in dogs
Type: in vivo, Beagle dogs
Condition Details: female, beagle, dog, plasma, po, 15 mg, Tigecycline Plasma Concentration, 75 min; PO 15 mg unformulated enteric-coated capsule, SC424; mean
Readout Label: concentration at 75 min (ng/mL)
Write the value in ng/mL as a bare number.

Query block: Which concentration at 75 min is reported for this compound? CN(C)c1cc(NC(=O)CNC(C)(C)C)c(O)c2c1C[C@H]1C[C@H]3[C@H](N(C)C)C(O)=C(C(N)=O)C(=O)[C@@]3(O)C(O)=C1C2=O
Result block: 0

====

Assay Protocol: Tigecycline plasma PK and % F after PO enteric-coated capsule in dogs
Format: in vivo, Beagle dogs
Condition Details: female, beagle, dog, plasma, po, 15 mg, Tigecycline Plasma Concentration, 15 min; PO 15 mg enteric-coated capsule with 500 mg CA and 100 mg LLC, SC424; individual dogs
Readout Label: concentration at 15 min (ng/mL)
Write the value in ng/mL as a bare number.

Query block: Which concentration at 15 min is reported for this compound? CN(C)c1cc(NC(=O)CNC(C)(C)C)c(O)c2c1C[C@H]1C[C@H]3[C@H](N(C)C)C(O)=C(C(N)=O)C(=O)[C@@]3(O)C(O)=C1C2=O
Result block: 0

====

Assay Protocol: Tigecycline plasma PK after IV bolus in dogs
Format: in vivo, Beagle dogs
Condition Details: female, beagle, dog, plasma, intravenous, 5 mg, Tigecycline Plasma Concentration, 20 min; 5 mg IV in PBS ([…]), SC431; individual dogs
Readout Label: concentration at 20 min (ng/mL)
Write the value in ng/mL as a bare number.

Query block: Which concentration at 20 min is reported for this compound? CN(C)c1cc(NC(=O)CNC(C)(C)C)c(O)c2c1C[C@H]1C[C@H]3[C@H](N(C)C)C(O)=C(C(N)=O)C(=O)[C@@]3(O)C(O)=C1C2=O
Result block: 117

====

Assay Protocol: Tigecycline plasma PK after IV bolus in dogs
Format: in vivo, Beagle dogs
Condition Details: female, Beagle, dog, plasma, intravenous, 1 mg, Tigecycline Plasma Concentration, 15 min; 1 mg IV in PBS (0.08 mg/kg), SC427; mean
Readout Label: concentration at 15 min (ng/mL)
Write the value in ng/mL as a bare number.

Query block: Which concentration at 15 min is reported for this compound? CN(C)c1cc(NC(=O)CNC(C)(C)C)c(O)c2c1C[C@H]1C[C@H]3[C@H](N(C)C)C(O)=C(C(N)=O)C(=O)[C@@]3(O)C(O)=C1C2=O [Tigecycline]
Result block: 22.3

====

Assay Protocol: in vivo
Condition Details: female, beagle, dog, po
Method: Adult Beagle dogs weighing approximately 10 to 15 kg were used in the study. The animals were housed at Sinclair Research Center, Columbia, Mo. either individually or in pairs in over-sized dog runs. […] A 12-hour light/12-hour dark photoperiod was maintained. Room temperature was set to be maintained at 20±5° C. Relative humidity was monitored but not controlled. Animal room and pen cleaning were performed according to the testing facility (Sinclair) SOPs. […]
Readout Label: bioavailability (%)
Write the value in % as a bare number.

Query block: Which bioavailability is reported for this compound? NC[C@H]1O[C@H](O[C@H]2[C@H](O)[C@@H](O[C@H]3O[C@H](CO)[C@@H](O)[C@H](N)[C@H]3O)[C@H](N)C[C@@H]2N)[C@H](N)C[C@@H]1O
Result block: 15
